- assay-overview: Solubility of the compound in water after 5 mins
- Format: physicochemical
readout-name: solubility at 5 min

structure_smiles=O=C(O)c1cc2c([nH]c3ccccc32)c(CCC(=O)N2CCC[C@H]2C(=O)O)n1 result="10000 µg/mL"

----------
- System: C6
- assay-overview: Antiproliferative activity against rat C6 cells assessed as cell viability after 24 hrs by MTT assay
- Type: functional, cell-based
- condition-description: C6, 24 h
readout-name: IC50 (µM)

structure_smiles=C[C@H](O)[C@H](NC(=O)c1cc2c([nH]c3ccccc32)c(CCC(=O)N2CCC[C@H]2C(=O)O)n1)C(=O)O readout_name=IC50 numeric_value=150
structure_smiles=CC(C)[C@H](NC(=O)c1cc2c([nH]c3ccccc32)c(CCC(=O)N2CCC[C@H]2C(=O)O)n1)C(=O)O readout_name=IC50 numeric_value=250
